# Target: UniProt:O42275
# Sequence (O42275 24-633 limits assumed): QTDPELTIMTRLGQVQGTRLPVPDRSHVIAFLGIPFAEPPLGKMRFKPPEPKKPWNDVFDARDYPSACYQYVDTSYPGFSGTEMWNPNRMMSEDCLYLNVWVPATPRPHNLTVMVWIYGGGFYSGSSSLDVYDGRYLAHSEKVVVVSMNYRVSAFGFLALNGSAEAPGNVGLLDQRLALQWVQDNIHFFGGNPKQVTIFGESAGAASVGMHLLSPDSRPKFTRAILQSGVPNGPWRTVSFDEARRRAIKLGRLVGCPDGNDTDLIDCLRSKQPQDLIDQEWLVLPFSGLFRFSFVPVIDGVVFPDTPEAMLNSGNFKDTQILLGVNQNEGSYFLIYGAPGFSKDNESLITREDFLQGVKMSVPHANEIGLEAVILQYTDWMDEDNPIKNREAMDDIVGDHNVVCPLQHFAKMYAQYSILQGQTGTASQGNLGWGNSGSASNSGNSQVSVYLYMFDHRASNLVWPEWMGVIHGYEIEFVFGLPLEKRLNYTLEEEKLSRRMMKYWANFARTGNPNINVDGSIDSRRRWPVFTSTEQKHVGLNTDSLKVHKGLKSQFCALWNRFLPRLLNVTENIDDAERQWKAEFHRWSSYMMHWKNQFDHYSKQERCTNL
# Assay method text: Inhibition of electric eel AChE preincubated for 15 mins at 10 uM followed by addition of acetylthiocholine iodide as substrate measured after 30 mins by Ellman's microplate assay
The source made the active and inactive calls. The calls are words filed in the database; no cut-off is given here.
Classes used: active, inactive

[
  {
    "Chemical structure": "O=C(C1=C(O)/C(=C/c2ccc3ccccc3c2)CCC1)c1ccccc1",
    "Group": "active"
  },
  {
    "Chemical structure": "O=C(C1=C(O)/C(=C/c2ccccc2F)CCC1)c1ccccc1",
    "Group": "active"
  },
  {
    "Chemical structure": "O=C(C1=C(O)/C(=C/c2ccc(Cc3ccccc3)cc2)CCC1)c1ccccc1",
    "Group": "active"
  },
  {
    "Chemical structure": "O=C(C1=C(O)/C(=C/c2ccccc2)CCC1)c1ccccc1",
    "Group": "inactive"
  },
  {
    "Chemical structure": "COc1ccc(/C=C2\\CCCC(C(=O)c3ccccc3)=C2O)cc1O",
    "Group": "inactive"
  },
  {
    "Chemical structure": "O=C(C1=C(O)/C(=C/c2ccc(Cl)c(Cl)c2)CCC1)c1ccccc1",
    "Group": "active"
  }
]
